assay: Cytotoxicity against human MCF10A cells assessed as reduction in cell viability after 48 hrs by MTT assay; assay type: toxicity, cell-based, MCF-10A
Rule for this label: true (1) means IC50 at 48 h is less than 20 µM; false (0) means IC50 at 48 h is at least 20 µM.

> print(dat)
                                smiles.code        cat
1  O=C(/C=C/c1ccc2c(c1)B(O)OC2)c1ccc(C(F)(F)F)cc1  false (0)

In: is_below(IC50 at 48 h, 20 µM) for "COCOc1cccc(C(=O)/C=C/c2ccc3c(c2)B(O)OC3)c1" ?
Out: false (0)
